- study system: G2019S LRRK2 (Homo sapiens, UniProt Q5S007, G2019S)
- Construct: expressed in transfected cells; host or cells: HEK293 (ATCC CRL-1573), transient transfection, mammalian expression vector with ubiquitin promoter
- Sequence (Q5S007 whole entry G2019S): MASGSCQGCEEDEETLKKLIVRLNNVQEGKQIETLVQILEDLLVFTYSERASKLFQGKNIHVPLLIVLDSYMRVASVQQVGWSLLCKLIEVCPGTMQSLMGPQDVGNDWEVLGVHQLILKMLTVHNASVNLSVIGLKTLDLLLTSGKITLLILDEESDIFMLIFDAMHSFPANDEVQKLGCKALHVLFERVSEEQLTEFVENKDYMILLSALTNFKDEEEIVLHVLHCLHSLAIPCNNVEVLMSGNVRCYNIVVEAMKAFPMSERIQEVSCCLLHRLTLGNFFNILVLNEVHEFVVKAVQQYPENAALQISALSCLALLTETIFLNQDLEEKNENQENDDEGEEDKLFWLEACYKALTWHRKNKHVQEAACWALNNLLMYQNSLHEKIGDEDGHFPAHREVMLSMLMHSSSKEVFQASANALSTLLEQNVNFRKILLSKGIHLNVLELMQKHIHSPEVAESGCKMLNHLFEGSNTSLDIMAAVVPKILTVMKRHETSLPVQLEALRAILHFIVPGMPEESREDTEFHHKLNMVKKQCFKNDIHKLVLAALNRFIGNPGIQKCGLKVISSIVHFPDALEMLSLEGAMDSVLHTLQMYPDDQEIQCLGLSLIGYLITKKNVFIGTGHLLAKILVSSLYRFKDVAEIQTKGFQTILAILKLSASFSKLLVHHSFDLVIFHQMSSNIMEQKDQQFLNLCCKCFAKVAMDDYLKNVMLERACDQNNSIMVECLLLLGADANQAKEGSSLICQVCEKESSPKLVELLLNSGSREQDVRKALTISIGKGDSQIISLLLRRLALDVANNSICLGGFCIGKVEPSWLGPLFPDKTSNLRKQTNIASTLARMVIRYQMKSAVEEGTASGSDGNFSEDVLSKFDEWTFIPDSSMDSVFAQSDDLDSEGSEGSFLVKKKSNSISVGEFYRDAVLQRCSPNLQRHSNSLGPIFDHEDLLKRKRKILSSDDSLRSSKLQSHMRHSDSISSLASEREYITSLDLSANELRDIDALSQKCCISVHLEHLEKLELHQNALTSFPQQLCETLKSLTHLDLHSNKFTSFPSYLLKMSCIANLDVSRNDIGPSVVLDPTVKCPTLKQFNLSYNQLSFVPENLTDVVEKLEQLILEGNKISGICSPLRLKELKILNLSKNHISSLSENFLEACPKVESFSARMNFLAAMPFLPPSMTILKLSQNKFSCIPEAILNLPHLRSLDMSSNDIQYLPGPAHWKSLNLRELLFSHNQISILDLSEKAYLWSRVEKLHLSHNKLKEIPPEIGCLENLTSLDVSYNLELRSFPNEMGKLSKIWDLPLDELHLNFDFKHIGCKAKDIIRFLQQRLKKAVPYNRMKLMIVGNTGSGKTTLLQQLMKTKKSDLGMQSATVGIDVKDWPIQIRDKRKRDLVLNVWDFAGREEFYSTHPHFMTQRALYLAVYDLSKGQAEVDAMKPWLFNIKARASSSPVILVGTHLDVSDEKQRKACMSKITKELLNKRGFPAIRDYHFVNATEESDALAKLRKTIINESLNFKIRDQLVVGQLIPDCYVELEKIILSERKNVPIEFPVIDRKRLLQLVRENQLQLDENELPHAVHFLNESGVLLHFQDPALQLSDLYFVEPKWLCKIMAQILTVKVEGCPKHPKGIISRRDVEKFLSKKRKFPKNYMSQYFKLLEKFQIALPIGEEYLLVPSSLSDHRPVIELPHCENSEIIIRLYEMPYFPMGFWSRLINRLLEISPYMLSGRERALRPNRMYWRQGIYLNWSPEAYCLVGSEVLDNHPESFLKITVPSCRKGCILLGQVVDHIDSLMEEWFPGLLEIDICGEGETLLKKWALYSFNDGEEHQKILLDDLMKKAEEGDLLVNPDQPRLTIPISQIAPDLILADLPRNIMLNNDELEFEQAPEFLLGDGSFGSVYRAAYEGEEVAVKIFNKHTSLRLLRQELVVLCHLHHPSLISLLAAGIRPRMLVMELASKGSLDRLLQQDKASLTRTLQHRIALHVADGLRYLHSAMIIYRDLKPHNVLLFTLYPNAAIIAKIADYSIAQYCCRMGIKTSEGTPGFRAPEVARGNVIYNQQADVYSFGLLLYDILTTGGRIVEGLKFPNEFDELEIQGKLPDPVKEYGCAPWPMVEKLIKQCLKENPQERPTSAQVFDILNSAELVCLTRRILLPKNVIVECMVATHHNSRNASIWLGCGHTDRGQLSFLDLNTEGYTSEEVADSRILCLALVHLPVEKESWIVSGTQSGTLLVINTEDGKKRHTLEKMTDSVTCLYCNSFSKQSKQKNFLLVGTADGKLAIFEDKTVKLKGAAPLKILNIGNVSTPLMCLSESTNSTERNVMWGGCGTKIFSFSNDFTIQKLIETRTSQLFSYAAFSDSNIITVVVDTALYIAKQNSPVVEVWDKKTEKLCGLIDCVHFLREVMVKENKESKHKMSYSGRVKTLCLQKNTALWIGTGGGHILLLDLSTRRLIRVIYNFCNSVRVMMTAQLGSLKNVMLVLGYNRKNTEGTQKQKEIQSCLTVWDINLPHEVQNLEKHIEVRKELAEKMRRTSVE
- protocol text: LRRK2 degradation assay, HiBit-tagged G2019S LRRK2 expressed from plasmid in HEK293 cells (Nano-Glo Dual-Luciferase)
- Format: cell-based
- run parameters: HiBit-tagged G2019S LRRK2 in HEK293 cells, 24 hours
attribute measured: Dmax

>>> result("CC1(Oc2ccc3[nH]nc(-c4ccnc(N5CCC(CN6CCN(C(=O)C7CCN(c8ccc9c(c8)C(=O)N(C8CCC(=O)NC8=O)C9=O)CC7)CC6)CC5)c4)c3c2)CC1 (stereo not shown)")
"50 to 70%"
>>> result("CC1(Oc2ccc3[nH]nc(-c4cc(N5CCC(CN=S6(=O)CCN(CC7CCN(c8ccc9c(c8)C(=O)N(C8CCC(=O)NC8=O)C9=O)CC7)CC6)CC5)ncn4)c3c2)CC1 (stereo not shown)")
"≥ 70%"
>>> result("CC1(Oc2ccc3[nH]nc(-c4cc(N5CCN(CC(F)(F)C6CCN(CC7CCN(c8cccc9c8C(=O)N(C8CCC(=O)NC8=O)C9=O)CC7)CC6)CC5)ncn4)c3c2)CC1 (stereo not shown)")
"50 to 70%"
>>> result("CC1(Oc2ccc3[nH]nc(-c4ccnc(N5CCC(CN6CCC(F)(CN7CCN(c8ccc9c(c8)C(=O)N(C8CCC(=O)NC8=O)C9=O)CC7)CC6)CC5)c4)c3c2)CC1 (stereo not shown)")
"50 to 70%"
>>> result("CC1(Oc2ccc3[nH]nc(-c4cc(N5CCC(CC6CCN(C(=O)C7CCN(c8ccc9c(c8)C(=O)N(C8CCC(=O)NC8=O)C9=O)CC7)CC6)CC5)ncn4)c3c2)CC1 (stereo not shown)")
"50 to 70%"
>>> result("C[C@H]1CN(c2cc(-c3n[nH]c4cc(F)c(OC5(C)CC5)cc34)ncn2)CCN1CC1(F)CCN(CC2CCN(c3ccc4c(c3)C(=O)N(C3CCC(=O)NC3=O)C4=O)CC2)CC1 (stereo partly shown)")
"< 50%"
>>> result("CC1(Oc2ccc3[nH]nc(-c4ccnc(N5CCC(O[C@H]6CC[C@H](OC7CCN(c8ccc9c(c8)C(=O)N(C8CCC(=O)NC8=O)C9=O)CC7)CC6)CC5)c4)c3c2)CC1 (stereo partly shown)")
"50 to 70%"
>>> result("CC1(Oc2ccc3[nH]nc(-c4cc(N5CCN(CC6(F)CCN(CC7CCN(c8ccc9c(c8)CN(C8CCC(=O)NC8=O)C9=O)CC7)CC6)CC5)ncn4)c3c2)CC1 (stereo not shown)")
"50 to 70%"
>>> result("C[C@H]1CN(c2cc(-c3[nH]nc4ccc(OC5(C)CC5)cc34)ncn2)CCN1CC1CCN(CC2CCN(c3cccc4c3C(=O)N(C3CCC(=O)NC3=O)C4=O)CC2)CC1 (stereo partly shown)")
"≥ 70%"
>>> result("C[C@H]1CN(c2cc(-c3[nH]nc4ccc(OC5(C)CC5)cc34)ncn2)CCN1CC1CCN(CC2CCN(c3ccc4c(c3)CN(C3CCC(=O)NC3=O)C4=O)CC2)CC1 (stereo partly shown)")
"50 to 70%"

---

- study system: wildtype LRRK2 (Homo sapiens)
- Construct: expressed in transfected cells; host or cells: HEK293 (ATCC CRL-1573), transient transfection, mammalian expression vector with ubiquitin promoter
- Sequence (Q5S007 whole entry): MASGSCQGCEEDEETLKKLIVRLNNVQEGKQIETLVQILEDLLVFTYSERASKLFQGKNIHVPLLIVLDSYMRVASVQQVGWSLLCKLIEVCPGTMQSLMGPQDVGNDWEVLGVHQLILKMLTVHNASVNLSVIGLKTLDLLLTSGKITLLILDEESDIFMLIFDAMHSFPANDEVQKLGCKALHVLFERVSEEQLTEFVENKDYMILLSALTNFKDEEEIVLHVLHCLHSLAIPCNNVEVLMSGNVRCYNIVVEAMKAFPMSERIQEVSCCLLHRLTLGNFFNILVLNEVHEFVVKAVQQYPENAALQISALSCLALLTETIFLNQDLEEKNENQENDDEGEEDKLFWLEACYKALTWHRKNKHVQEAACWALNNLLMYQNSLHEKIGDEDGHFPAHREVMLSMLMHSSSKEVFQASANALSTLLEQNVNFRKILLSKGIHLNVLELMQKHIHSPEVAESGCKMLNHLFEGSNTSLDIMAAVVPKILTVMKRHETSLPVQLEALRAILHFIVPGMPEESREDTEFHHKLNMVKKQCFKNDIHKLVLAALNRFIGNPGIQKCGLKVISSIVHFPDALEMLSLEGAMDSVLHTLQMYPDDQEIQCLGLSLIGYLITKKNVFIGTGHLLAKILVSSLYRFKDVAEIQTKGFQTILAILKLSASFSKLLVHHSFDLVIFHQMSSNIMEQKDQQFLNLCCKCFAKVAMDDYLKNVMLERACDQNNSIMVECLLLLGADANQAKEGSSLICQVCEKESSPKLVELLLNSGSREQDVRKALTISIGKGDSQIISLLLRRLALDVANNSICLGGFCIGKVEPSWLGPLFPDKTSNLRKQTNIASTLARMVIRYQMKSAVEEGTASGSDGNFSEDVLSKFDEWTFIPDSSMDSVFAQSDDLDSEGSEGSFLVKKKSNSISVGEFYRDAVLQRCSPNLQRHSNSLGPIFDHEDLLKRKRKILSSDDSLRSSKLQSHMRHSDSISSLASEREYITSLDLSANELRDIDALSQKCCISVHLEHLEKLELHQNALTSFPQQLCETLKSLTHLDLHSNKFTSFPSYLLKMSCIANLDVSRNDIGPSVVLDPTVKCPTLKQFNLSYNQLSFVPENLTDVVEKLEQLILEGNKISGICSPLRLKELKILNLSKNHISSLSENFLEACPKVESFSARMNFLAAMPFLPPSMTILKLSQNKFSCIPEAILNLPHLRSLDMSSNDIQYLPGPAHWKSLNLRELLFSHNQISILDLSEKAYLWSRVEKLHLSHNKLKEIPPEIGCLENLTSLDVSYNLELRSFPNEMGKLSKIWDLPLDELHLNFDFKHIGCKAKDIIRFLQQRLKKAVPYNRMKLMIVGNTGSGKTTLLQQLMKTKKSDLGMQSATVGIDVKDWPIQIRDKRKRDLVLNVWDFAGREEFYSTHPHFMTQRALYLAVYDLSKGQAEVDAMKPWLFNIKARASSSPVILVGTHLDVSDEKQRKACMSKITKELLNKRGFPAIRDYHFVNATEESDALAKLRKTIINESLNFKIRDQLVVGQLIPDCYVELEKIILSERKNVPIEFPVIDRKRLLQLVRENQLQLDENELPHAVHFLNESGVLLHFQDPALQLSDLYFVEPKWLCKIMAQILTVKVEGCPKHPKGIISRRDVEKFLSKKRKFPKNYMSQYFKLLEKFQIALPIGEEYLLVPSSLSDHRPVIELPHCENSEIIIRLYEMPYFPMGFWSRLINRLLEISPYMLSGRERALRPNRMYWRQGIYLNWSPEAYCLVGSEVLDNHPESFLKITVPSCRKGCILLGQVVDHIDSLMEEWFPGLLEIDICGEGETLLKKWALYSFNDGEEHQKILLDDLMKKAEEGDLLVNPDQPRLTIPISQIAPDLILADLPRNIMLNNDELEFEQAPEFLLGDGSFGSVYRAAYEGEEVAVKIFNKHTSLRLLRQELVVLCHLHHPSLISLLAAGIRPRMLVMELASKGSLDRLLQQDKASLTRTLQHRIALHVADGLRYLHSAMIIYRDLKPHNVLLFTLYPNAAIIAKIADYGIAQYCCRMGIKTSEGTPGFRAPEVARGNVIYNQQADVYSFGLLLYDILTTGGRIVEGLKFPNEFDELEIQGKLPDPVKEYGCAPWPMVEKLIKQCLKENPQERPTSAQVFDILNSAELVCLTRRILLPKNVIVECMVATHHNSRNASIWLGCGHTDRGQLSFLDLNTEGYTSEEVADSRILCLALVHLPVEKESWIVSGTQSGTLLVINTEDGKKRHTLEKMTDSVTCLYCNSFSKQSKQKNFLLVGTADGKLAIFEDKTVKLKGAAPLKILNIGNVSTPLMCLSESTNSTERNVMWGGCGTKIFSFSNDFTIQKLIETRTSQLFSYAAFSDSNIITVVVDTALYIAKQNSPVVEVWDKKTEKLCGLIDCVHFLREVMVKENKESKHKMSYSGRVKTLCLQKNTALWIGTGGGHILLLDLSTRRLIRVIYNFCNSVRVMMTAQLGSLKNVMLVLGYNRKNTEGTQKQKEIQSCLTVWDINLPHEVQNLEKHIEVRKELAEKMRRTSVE
- protocol text: LRRK2 degradation assay, HiBit-tagged wildtype LRRK2 expressed from plasmid in HEK293 cells (Nano-Glo Dual-Luciferase)
- Assay type: cell-based
- run parameters: HiBit-tagged wildtype LRRK2 in HEK293 cells, 24 hours; read-out: *WT DC50
attribute measured: DC50

>>> result("CC1(Oc2ccc3n[nH]c(-c4ccnc(N5CCN(C(=O)C6CCN(CC7CCN(c8ccc9c(c8)C(=O)N(C8CCC(=O)NC8=O)C9=O)CC7)CC6)CC5)c4)c3c2)CC1 (centres unmarked) [Compound 85]")
"< 10 nM"
>>> result("CC1(Oc2ccc3[nH]nc(-c4cc(N5CCC(CN=S6(=O)CCN(CC7CCN(c8ccc9c(c8)C(=O)N(C8CCC(=O)NC8=O)C9=O)CC7)CC6)CC5)ncn4)c3c2)CC1 (centres unmarked) [Compound 63]")
"< 10 nM"
>>> result("C[C@H]1CN(c2cc(-c3n[nH]c4ccc(OC5(C)CC5)cc34)ncn2)CCN1CCC1CCN(CC2CCN(c3cccc4c3C(=O)N(C3CCC(=O)NC3=O)C4=O)CC2)CC1 (some centres unmarked) [Compound 138]")
"10 to 50 nM"
>>> result("CC1(Oc2ccc3[nH]nc(-c4cc(N5CCC(O[C@H]6CC[C@H](OC7CCN(c8ccc9c(c8)C(=O)N(C8CCC(=O)NC8=O)C9=O)CC7)CC6)CC5)ncn4)c3c2)CC1 (some centres unmarked) [Compound 108]")
"10 to 50 nM"
>>> result("CC1(Oc2ccc3[nH]nc(-c4cc(N5CCN(CC6CCN(C(=O)C7CCN(c8ccc9c(c8)C(=O)N(C8CCC(=O)NC8=O)C9=O)CC7)CC6)CC5)ncn4)c3c2)CC1 (centres unmarked) [Compound 90]")
"< 10 nM"
>>> result("CC1(Oc2ccc3[nH]nc(-c4cc(N5CCC(O[C@H]6C[C@H](OC7CCN(c8ccc9c(c8)C(=O)N(C8CCC(=O)NC8=O)C9=O)CC7)C6)CC5)ncn4)c3c2)CC1 (some centres unmarked) [Compound 126]")
"10 to 50 nM"
>>> result("CC1(Oc2ccc3[nH]nc(-c4cc(N5CCN(C[C@H]6CCN(CC7CCN(c8ccc9c(c8)C(=O)N(C8CCC(=O)NC8=O)C9=O)CC7)C(=O)C6)CC5)ncn4)c3c2)CC1 (single isomer, unassigned) [Compound 104]")
"< 10 nM"
>>> result("CC1(Oc2ccc3n[nH]c(-c4cc(N5CCC(CN6CCN(CC7CCN(c8ccc9c(c8)CN(C8CCC(=O)NC8=O)C9=O)CC7)CC6)CC5)ncn4)c3c2)CC1 (centres unmarked) [Compound 112]")
"< 10 nM"
>>> result("CC1(Oc2ccc3[nH]nc(-c4cc(N5CCN(CC67CC(CN8CCN(c9ccc%10c(c9)C(=O)N(C9CCC(=O)NC9=O)C%10=O)CC8)(C6)C7)CC5)ncn4)c3c2)CC1 (centres unmarked) [Compound 124]")
"< 10 nM"
>>> result("CC1(Oc2ccc3[nH]nc(-c4cc(N5CCC(CN6CCN(CC7CCN(c8ccc9c(c8)C(=O)N(C8CCC(=O)NC8=O)C9=O)CC7)CC6)CC5)ncc4F)c3c2)CC1 (centres unmarked) [Compound 99]")
"50 to 100 nM"
>>> result("C[C@H]1CN(c2cc(-c3n[nH]c4ccc(OC5(C)CC5)cc34)ncn2)CCN1CC1CCN(CCCNc2cccc3c2CN(C2CCC(=O)NC2=O)C3=O)CC1 (some centres unmarked) [Compound 142]")
"50 to 100 nM"
>>> result("CC1(Oc2ccc3[nH]nc(-c4cc(N5CCN(C[C@H]6CC[C@H](CN7CCN(c8ccc9c(c8)C(=O)N(C8CCC(=O)NC8=O)C9=O)CC7)CC6)CC5)ncn4)c3c2)CC1 (some centres unmarked) [Compound 101]")
"10 to 50 nM"
>>> result("CC1(Oc2ccc3[nH]nc(-c4cc(N5CCC(CN6CCN(CC7CCN(c8cccc9c8C(=O)N(C8CCC(=O)NC8=O)C9=O)CC7)CC6)CC5)ncn4)c3c2)CC1 (centres unmarked) [Compound 146]")
"10 to 50 nM"
>>> result("CC1(Oc2ccc3[nH]nc(-c4cc(N5CCC(CN6CCN(C(=O)C7CCN(c8ccc9c(c8)C(=O)N(C8CCC(=O)NC8=O)C9=O)CC7)CC6)CC5)ncn4)c3c2)CC1 (centres unmarked) [Compound 94]")
"< 10 nM"
>>> result("CC1(Oc2ccc3[nH]nc(-c4cc(N5CCO[C@@H](CN6CCC(OC7CCN(c8ccc9c(c8)C(=O)N(C8CCC(=O)NC8=O)C9=O)CC7)CC6)C5)ncn4)c3c2)CC1 (some centres unmarked) [Compound 149]")
"10 to 50 nM"
>>> result("CC1(Oc2ccc3[nH]nc(-c4cc(N5CCN(CC6(F)CCN(CC7CCN(c8ccc9c(c8)C(=O)N(C8CCC(=O)NC8=O)C9=O)CC7)CC6)CC5)ncn4)c3c2)CC1 (centres unmarked) [Compound 79]")
"< 10 nM"
>>> result("CC1(Oc2ccc3[nH]nc(-c4cc(N5C[C@@H]6[C@H](CN7CCN(CC8CCN(c9ccc%10c(c9)C(=O)N(C9CCC(=O)NC9=O)C%10=O)CC8)CC7)[C@@H]6C5)ncn4)c3c2)CC1 (some centres unmarked) [Compound 74]")
"50 to 100 nM"
>>> result("CC1(Oc2ccc3[nH]nc(-c4cc(N5CCN(CC6(F)CCN(CC7CCN(c8ccc9c(c8)CN(C8CCC(=O)NC8=O)C9=O)CC7)CC6)CC5)ncn4)c3c2)CC1 (centres unmarked) [Compound 110]")
"< 10 nM"
>>> result("CC1(Oc2ccc3[nH]nc(-c4ccnc(N5CCC(CN6CCC(F)(CN7CCN(c8ccc9c(c8)C(=O)N(C8CCC(=O)NC8=O)C9=O)CC7)CC6)CC5)c4)c3c2)CC1 (centres unmarked) [Compound 82]")
"10 to 50 nM"
>>> result("CC1(Oc2ccc3[nH]nc(-c4cc(N5CCC(CN6CC[C@H](CN7CCN(c8ccc9c(c8)C(=O)N(C8CCC(=O)NC8=O)C9=O)CC7)C6)CC5)ncn4)c3c2)CC1 (some centres unmarked) [Compound 114]")
"< 10 nM"
